# System: MDR1
# assay: in vitro
# condition-label: human, Caco-2, PappBA, Caco-2, 2 μM, + Quinidine 0.1 mM (MDR1)
endpoint-label: Papp B→A
Write the numeric value and follow it with the unit.

Give reported Papp B→A for COc1ccc2c(c1)[nH]c1c(C)nccc12 (MDR1)
29 ×10⁻⁶ cm/s

* * *

Listing: AUC(0-inf) of selected molecules
# assay: Pharmacokinetics in rats after intravenous and intragastric administration
# condition-label: both, Sprague-Dawley, rat, in vivo, iv, 3.3 mg/kg, AUC(0−∞), rats, i.v. 3.3 mg/kg
# Source text: Fifty-six pathogen-free Sprague-Dawley adult rats comprising 28 males and 28 females (weighing within the range of 200–250 g) were obtained from Drug Safety Evaluation and Research Center of Shanghai University of Traditional Chinese Medicine. Animals were raised under an environmentally controlled breeding room for 7 days before commencing the experiments. […]
Field format: number, assumed ng·h/mL, no unit text.

COc1ccc2c3c([nH]c2c1)C(C)=NCC3 = 307

Tell me measured AUC(0-inf) for COc1ccc2c(c1)[nH]c1c(C)nccc12 please.
1270

Taken from paper PMC5566973.
